Test system: K-562 leukemia
test method notes: NCI-60 one-dose screen, 48 h (100 = growth as untreated, 0 = no growth, -100 = all killed)
measurement setup: 10 µM unless noted
About 83,000 compounds went through this panel and 20% of them were active in at least one assay; those are over-represented in the sample as a whole.
Lab note: anything with growth at or over 10% counts as Satisfied; the rest go in Not satisfied.

[
  {
    "structure string": "Cc1nnc(NS(=O)(=O)c2ccc(N=Nc3ccc(N)nc3N)cc2)s1",
    "class name": "Satisfied"
  },
  {
    "structure string": "O=C(Nc1ncc(Cc2cccc(C(F)(F)F)c2)s1)c1ccc2c(c1)OCCO2",
    "class name": "Not satisfied"
  },
  {
    "structure string": "Cc1ccc(S(=O)(=O)Nc2cc(Sc3ccccc3)c(O)c3ccccc23)cc1",
    "class name": "Satisfied"
  },
  {
    "structure string": "N#C/C(=N\\Nc1ccc(Cl)cc1)C(=O)Nc1cc(-c2ccccc2)nn1-c1ccccc1",
    "class name": "Satisfied"
  },
  {
    "structure string": "CC(=O)OC[C@]12CCC(C)(C)C=C1[C@H]1CC[C@@H]3[C@@]4(C)CCCNC(C)(C)[C@@H]4CC[C@@]3(C)[C@]1(C)CC2",
    "class name": "Satisfied"
  }
]

Asked: Exam item: decide whether the reported growth for CCCCC1=C(Br)C(=O)c2nc(C)ccc2C1=O is at least 10%.
Given back: Satisfied
